# Measurement target: Adenosine receptor A1 (Homo sapiens) (UniProt P30542)
# Sequence (P30542 whole entry): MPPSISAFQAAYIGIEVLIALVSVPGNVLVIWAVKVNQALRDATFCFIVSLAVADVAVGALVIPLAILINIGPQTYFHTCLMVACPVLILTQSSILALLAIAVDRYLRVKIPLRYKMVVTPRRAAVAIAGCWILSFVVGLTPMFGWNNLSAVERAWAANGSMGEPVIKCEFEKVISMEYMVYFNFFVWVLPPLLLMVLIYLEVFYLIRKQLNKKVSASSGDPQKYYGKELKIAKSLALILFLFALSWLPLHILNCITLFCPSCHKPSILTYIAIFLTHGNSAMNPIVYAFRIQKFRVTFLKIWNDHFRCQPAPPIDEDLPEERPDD
# Protocol description: Displacement of [3H]N6-phenylisopropyladenosine from recombinant human A1AR expressed in CHO cell membranes at 10 uM after 60 mins by liquid scintillation counting method relative to control
inhibition values by entry

{"Smiles representation": "Fc1ccc(C#Cc2nc(NCc3cccc(Cl)c3)c3nc[nH]c3n2)cc1F", "Bound operator": "<", "inhibition (%)": 10}
{"Smiles representation": "CNC(=O)[C@@]12C[C@@H]1[C@@H](n1cnc3c(N(C)C)nc(Cl)nc31)[C@H](O)[C@@H]2O", "Bound operator": "=", "inhibition (%)": 26}
{"Smiles representation": "CC(=O)NCCCNC(=O)[C@@]12C[C@@H]1[C@@H](n1cnc3c(NC(C4CC4)C4CC4)nc(Cl)nc31)[C@H](O)[C@@H]2O", "Bound operator": "=", "inhibition (%)": 46}
{"Smiles representation": "CCOC(=O)[C@@]12C[C@@H]1[C@@H](n1cnc3c(N(C)C)nc(Cl)nc31)[C@H](O)[C@@H]2O", "Bound operator": "<", "inhibition (%)": 10}
{"Smiles representation": "Clc1cccc(CNc2nc(Cl)nc3[nH]cnc23)c1", "Bound operator": "=", "inhibition (%)": 45}
{"Smiles representation": "CNC(=O)[C@@]12C[C@@H]1[C@@H](n1cnc3c(N(C)C)nc(C#Cc4ccc(Cl)s4)nc31)[C@H](O)[C@@H]2O", "Bound operator": "=", "inhibition (%)": 25}
{"Smiles representation": "CN(C)c1nc(Cl)nc2c1ncn2[C@H]1[C@H](O)[C@H](O)[C@]2(CO)C[C@H]12", "Bound operator": "=", "inhibition (%)": 11}
